Tested on: GABA-A receptor; alpha-5/beta-3/gamma-2 (Homo sapiens, UniProt P18507+P28472+P31644)
Sequence (P18507 whole entry): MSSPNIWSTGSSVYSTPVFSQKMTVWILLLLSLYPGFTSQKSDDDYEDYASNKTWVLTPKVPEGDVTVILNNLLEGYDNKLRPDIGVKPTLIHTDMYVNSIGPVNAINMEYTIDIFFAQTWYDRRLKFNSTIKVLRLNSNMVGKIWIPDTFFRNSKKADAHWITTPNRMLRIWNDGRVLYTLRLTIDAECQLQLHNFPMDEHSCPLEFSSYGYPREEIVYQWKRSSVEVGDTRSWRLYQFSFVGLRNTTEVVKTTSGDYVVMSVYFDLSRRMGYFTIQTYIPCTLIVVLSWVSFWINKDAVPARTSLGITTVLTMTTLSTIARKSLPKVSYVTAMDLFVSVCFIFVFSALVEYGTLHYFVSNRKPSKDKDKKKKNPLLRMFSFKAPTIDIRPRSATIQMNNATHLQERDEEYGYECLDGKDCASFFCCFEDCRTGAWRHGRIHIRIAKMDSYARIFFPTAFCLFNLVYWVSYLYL
Sequence (P28472 whole entry): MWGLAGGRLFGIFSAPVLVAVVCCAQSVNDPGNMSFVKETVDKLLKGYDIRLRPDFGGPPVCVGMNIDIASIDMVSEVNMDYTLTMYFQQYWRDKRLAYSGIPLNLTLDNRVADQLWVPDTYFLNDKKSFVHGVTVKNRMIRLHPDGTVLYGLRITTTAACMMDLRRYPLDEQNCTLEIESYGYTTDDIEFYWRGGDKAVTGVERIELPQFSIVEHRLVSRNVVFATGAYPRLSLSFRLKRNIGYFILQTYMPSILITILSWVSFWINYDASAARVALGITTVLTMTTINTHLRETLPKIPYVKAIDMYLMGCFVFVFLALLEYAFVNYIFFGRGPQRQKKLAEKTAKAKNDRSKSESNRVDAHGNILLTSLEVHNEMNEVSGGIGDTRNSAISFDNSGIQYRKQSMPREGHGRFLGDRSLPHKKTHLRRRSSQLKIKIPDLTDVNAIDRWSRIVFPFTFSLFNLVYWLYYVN
Sequence (P31644 whole entry): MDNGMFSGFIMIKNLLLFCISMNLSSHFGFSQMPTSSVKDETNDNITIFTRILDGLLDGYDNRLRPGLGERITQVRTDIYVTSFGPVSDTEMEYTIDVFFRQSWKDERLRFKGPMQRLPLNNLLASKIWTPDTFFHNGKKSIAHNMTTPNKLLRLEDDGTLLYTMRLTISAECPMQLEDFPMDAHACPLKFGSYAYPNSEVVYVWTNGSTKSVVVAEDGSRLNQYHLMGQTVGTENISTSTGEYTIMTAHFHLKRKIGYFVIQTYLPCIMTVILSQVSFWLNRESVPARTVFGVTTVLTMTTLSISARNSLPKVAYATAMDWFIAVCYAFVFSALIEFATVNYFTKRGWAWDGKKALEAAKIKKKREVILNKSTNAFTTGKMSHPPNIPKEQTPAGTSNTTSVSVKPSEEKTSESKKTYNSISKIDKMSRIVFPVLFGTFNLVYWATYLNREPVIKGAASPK
Assay overview: Displacement of [3H]flunitrazepam from human recombinant GABAA alpha-5-beta-3-gamma-2 receptor expressed in HEK293 cells
Recorded metric: log10 of Ki (log10 of the value in nM)
Annotation: log10 of Ki, nM basis.

[
  {
    "Smiles": "C#Cc1ccc2c(c1)C(=O)N(C)Cc1c(C(=O)OCOCOC(=O)c3ncn4c3CN(C)C(=O)c3cc(C#C)ccc3-4)ncn1-2",
    "Number": 1.88
  },
  {
    "Smiles": "C#Cc1ccc2c(c1)C(c1ccccc1)=NCc1c(C(=O)OCCCOC(=O)c3ncn4c3CN=C(c3ccccc3)c3cc(C#C)ccc3-4)ncn1-2",
    "Number": 2.29
  },
  {
    "Smiles": "C#Cc1ccc2c(c1)C(c1ccccc1)=NCc1c(C(=O)OCCOCCOC(=O)c3ncn4c3CN=C(c3ccccc3)c3cc(C#C)ccc3-4)ncn1-2",
    "Number": 3.70
  },
  {
    "Smiles": "CCc1ccc2c(c1)C(=O)N(C)Cc1c(C(=O)OCCCOC(=O)c3ncn4c3CN(C)C(=O)c3cc(CC)ccc3-4)ncn1-2",
    "Number": 2.00
  }
]

Switching to the query record.
Look up log10 of Ki of "C#Cc1ccc2c(c1)C(=O)N(C)Cc1c(C(=O)OCCCCCOC(=O)c3ncn4c3CN(C)C(=O)c3cc(C#C)ccc3-4)ncn1-2" and report it. 0.73
